assay procedure: In Vitro GIRK Thallium Flux Assay (2.5 minutes): Human Embryonic Kidney (HEK-293) cell lines co-expressing rat mGlu receptors 2, 3, 4, 6, 7 or 8 and G protein-coupled inwardly-rectifying potassium (GIRK) channels_ENREF_54 were grown in Growth Media containing 45% DMEM, 45% F-12, 10% FBS, 20 mM HEPES, 2 mM L-glutamine, antibiotic/antimycotic, non-essential amino acids, 700 μg/ml G418, and 0.6 μg/ml puromycin at 37° C. in the presence of 5% CO2. All cell culture reagents were purchased from Invitrogen Corp. (Carlsbad, Calif.) unless otherwise noted. Compound activity at the group II (mGlu2 and mGlu3) mGlus was assessed using thallium flux through GIRK channels. Briefly, cells were plated into 384-well, black-walled, clear-bottomed poly-D-lysine-coated plates at a density of 15,000 cells/20 μL/well in DMEM containing 10% dialyzed FBS, 20 mM HEPES, and 100 units/mL penicillin/streptomycin (assay media). Plated cells were incubated overnight at 37° C. in the presence of 5% CO2. The following day, the medium was exchanged from the cells to assay buffer [Hanks' balanced salt solution (Invitrogen) containing 20 mM HEPES, pH 7.3] using an ELX405 microplate washer (BioTek), leaving 20 μL/well, followed by the addition of 20 μL/well FluoZin2-AM (330 nM final concentration) indicator dye (Invitrogen; prepared as a stock in DMSO and mixed in a 1:1 ratio with Pluronic acid F-127) in assay buffer. Cells were incubated for 1 h at room temperature, and the dye exchanged to assay buffer using an ELX405, leaving 20 μL/well. Test compounds were diluted to 2 times their final desired concentration in assay buffer (0.3% DMSO final concentration). Agonists were diluted in thallium buffer [125 mM sodium bicarbonate (added fresh the morning of the experiment), 1 mM magnesium sulfate, 1.8 mM calcium sulfate, 5 mM glucose, 12 mM thallium sulfate, and 10 mM HEPES, pH 7.3] at 5 times the final concentration to be assayed. Cell plates and compound plates were loaded onto a kinetic imaging plate reader (FDSS 6000 or 7000; Hamamatsu Corporation, Bridgewater, N.J.). Appropriate baseline readings were taken (10 images at 1 Hz; excitation, 470±20 nm; emission, 540±30 nm) and test compounds were added in a 20 μL volume and incubated for either 2.5 min or 60 min as indicated before the addition of 10 μL of thallium buffer with or without agonist. After the addition of agonist, data were collected for approximately an additional 2.5 min. Data were analyzed using Excel (Microsoft Corp, Redmond, Wash.). The slope of the fluorescence increase beginning 5 s after thallium/agonist addition and ending 15 s after thallium/agonist addition was calculated, corrected to vehicle and maximal agonist control slope values, and plotted in using either XLfit (ID Business Solutions Ltd) or Prism software (GraphPad Software, San Diego, Calif.) to generate concentration-response curves. Potencies were calculated from fits using a four-point parameter logistic equation. For concentration-response curve experiments, compounds were serially diluted 1:3 into 10 point concentration response curves and were transferred to daughter plates using an Echo acoustic plate reformatter (Labcyte, Sunnyvale, Calif.). Test compounds were applied and followed by EC80 concentrations of glutamate.
experimental conditions: HEK293, 2.5 min
quantity measured: log10 of EC50 (log10 of the value in nM)
Form field - Quantity: EC50; Unit: nM; Scale: log10

Solved entries (count: 4):
Clc1ccc(-c2cccc(-c3csc(-c4ccccc4)n3)c2)cc1: 2.90
Fc1ccccc1-c1cccc(-c2nc(-c3ccccc3)n(-c3ccccc3)n2)c1: 3.65
COc1ccc(-c2cccc(-c3csc(-c4ccccc4)n3)c2)cc1: 3.25
Fc1cccc(-c2cccc(-c3nsc(-c4ccoc4)n3)c2)c1: 3.54

What does the record list as log10 of EC50 for c1ccc(-c2nc(-c3cccc(-c4ccco4)c3)nn2-c2ccccc2)cc1 ?
2.32
